Tested on: PyIESI-1 RRM domain (Plasmodium yoelii PY17X_0911200 aa 795-956, GST fusion)
ASSAY_NAME: RBNS R-value (6-mer enrichment in protein-bound RNA vs input library) (ratio); higher = stronger binding preference
MEASUREMENT_SETUP: protein concentration: 1000 nM
Whole data set: some 4,100 sequences, median “RBNS R-value (6-mer enrichment in protein-bound RNA vs input library)” near 0.96, cut for the highest 2% near 2.4. This is one part of a sample in which the highest values are shown more often than they occur.
# if value of RBNS R-value reaches 1, tag label 1; if it stays below, tag label 0

residue_sequence=AUAUGA measured_on="PyIESI-1 RRM domain (Plasmodium yoelii PY17X_0911200 aa 795-956, GST fusion)" class_name="label 1"
residue_sequence=AUUGAG measured_on="PyIESI-1 RRM domain (Plasmodium yoelii PY17X_0911200 aa 795-956, GST fusion)" class_name="label 1"
residue_sequence=CGAUGC measured_on="PyIESI-1 RRM domain (Plasmodium yoelii PY17X_0911200 aa 795-956, GST fusion)" class_name="label 1"
residue_sequence=AUUGAU measured_on="PyIESI-1 RRM domain (Plasmodium yoelii PY17X_0911200 aa 795-956, GST fusion)" class_name="label 1"
residue_sequence=AGAUCU measured_on="PyIESI-1 RRM domain (Plasmodium yoelii PY17X_0911200 aa 795-956, GST fusion)" class_name="label 0"
residue_sequence=UGAUCA measured_on="PyIESI-1 RRM domain (Plasmodium yoelii PY17X_0911200 aa 795-956, GST fusion)" class_name="label 1"
residue_sequence=UACGGA measured_on="PyIESI-1 RRM domain (Plasmodium yoelii PY17X_0911200 aa 795-956, GST fusion)" class_name="label 0"
residue_sequence=UAUGCA measured_on="PyIESI-1 RRM domain (Plasmodium yoelii PY17X_0911200 aa 795-956, GST fusion)" class_name="label 0"
residue_sequence=CUCUGA measured_on="PyIESI-1 RRM domain (Plasmodium yoelii PY17X_0911200 aa 795-956, GST fusion)" class_name="label 1"
residue_sequence=GAUGUC measured_on="PyIESI-1 RRM domain (Plasmodium yoelii PY17X_0911200 aa 795-956, GST fusion)" class_name="label 1"
residue_sequence=GUGUGA measured_on="PyIESI-1 RRM domain (Plasmodium yoelii PY17X_0911200 aa 795-956, GST fusion)" class_name="label 1"
residue_sequence=CGAUAC measured_on="PyIESI-1 RRM domain (Plasmodium yoelii PY17X_0911200 aa 795-956, GST fusion)" class_name="label 1"
residue_sequence=UUGACA measured_on="PyIESI-1 RRM domain (Plasmodium yoelii PY17X_0911200 aa 795-956, GST fusion)" class_name="label 1"
residue_sequence=AACCUG measured_on="PyIESI-1 RRM domain (Plasmodium yoelii PY17X_0911200 aa 795-956, GST fusion)" class_name="label 1"
residue_sequence=CUUGAC measured_on="PyIESI-1 RRM domain (Plasmodium yoelii PY17X_0911200 aa 795-956, GST fusion)" class_name="label 1"
residue_sequence=UCCCAU measured_on="PyIESI-1 RRM domain (Plasmodium yoelii PY17X_0911200 aa 795-956, GST fusion)" class_name="label 0"

----------
Tested on: PyIESI-1 RRM domain (Plasmodium yoelii PY17X_0911200 aa 795-956, GST fusion)
ASSAY_NAME: RBNS R-value (6-mer enrichment in protein-bound RNA vs input library) (ratio); higher = stronger binding preference
MEASUREMENT_SETUP: protein concentration: 250 nM
In all, about 4,100 sequences were measured (“RBNS R-value (6-mer enrichment in protein-bound RNA vs input library)”: median about 0.96, highest 2% from about 2.4 on). The sample holds the highest values, similar sequences and a random draw of the others, so the mix is not that of the screen.
Assign met whenever RBNS R-value does not fall below 1; assign not met whenever it does.

residue_sequence=CUGAAU class_name=met
residue_sequence=CGAUUU class_name=met
residue_sequence=UUUACC class_name="not met"
residue_sequence=GUAGUG class_name="not met"
residue_sequence=GUAAAA class_name="not met"
residue_sequence=CGUCGU class_name="not met"
residue_sequence=AAUGUA class_name="not met"
residue_sequence=GAUGGU class_name=met
residue_sequence=UAUGUC class_name="not met"
residue_sequence=CAUGUU class_name="not met"
residue_sequence=AAUGAC class_name=met
residue_sequence=GGGUUU class_name="not met"
residue_sequence=UAUGUG class_name="not met"
residue_sequence=CCAUUU class_name="not met"
residue_sequence=AACCAG class_name="not met"
residue_sequence=UCUGAU class_name=met
residue_sequence=AAUCCC class_name="not met"
residue_sequence=GAUGUG class_name=met
residue_sequence=CAAGGC class_name="not met"
residue_sequence=UACUAC class_name="not met"
residue_sequence=GAUUCC class_name=met
residue_sequence=AAUUCA class_name="not met"
residue_sequence=GUGAUU class_name=met
residue_sequence=GUGAUA class_name=met
residue_sequence=UACUUC class_name="not met"
residue_sequence=AGGAUG class_name=met
residue_sequence=GUGAUC class_name=met
residue_sequence=AUGAUC class_name=met
residue_sequence=CCGGUG class_name=met
residue_sequence=CGCAAG class_name="not met"

----------
Overview of recorded RBNS R-value for various sequences
System: PyIESI-1 RRM domain (Plasmodium yoelii PY17X_0911200 aa 795-956, GST fusion)
ASSAY_NAME: RBNS R-value (6-mer enrichment in protein-bound RNA vs input library) (ratio); higher = stronger binding preference
MEASUREMENT_SETUP: protein concentration: 250 nM
In all, about 4,100 sequences were measured (“RBNS R-value (6-mer enrichment in protein-bound RNA vs input library)”: median about 0.96, highest 2% from about 2.4 on). The full list was thinned out, with the highest values kept by preference.
PROPERTY_LABEL: RBNS R-value

residue_sequence=UAUGAG reported=0.865
residue_sequence=UUUGAC reported=1.48
residue_sequence=ACGAUA reported=1.21
residue_sequence=GAUCGG reported=0.955
residue_sequence=AUGAUA reported=4.79
residue_sequence=UAUGCC reported=0.797
residue_sequence=GAUAGU reported=1.39
residue_sequence=AAUGGU reported=0.878
residue_sequence=GUGGCC reported=0.987
residue_sequence=AAUUGU reported=0.811
residue_sequence=GUUUGG reported=0.834
residue_sequence=GAAUGA reported=2.5
residue_sequence=AUUUGA reported=2.85
residue_sequence=AUUGAG reported=1.23
residue_sequence=UUCGAU reported=1.93
residue_sequence=UUUGUU reported=0.893
residue_sequence=AGCUGA reported=1.72
residue_sequence=CAUGAG reported=0.978
residue_sequence=CCGCUA reported=0.743
residue_sequence=GAUAGA reported=1.92
residue_sequence=UUGAGA reported=1.31
residue_sequence=UAUUGA reported=1.66
residue_sequence=AAUUGA reported=2.42
residue_sequence=CGUUUG reported=1.1
residue_sequence=GAUGGC reported=3.56
residue_sequence=CACGAU reported=1.8
residue_sequence=AAUGCU reported=0.903
residue_sequence=GCUACG reported=0.896
residue_sequence=AUUAAC reported=0.87
residue_sequence=CAUUGC reported=1.1
residue_sequence=GUUGAG reported=0.856
residue_sequence=GCGACC reported=1.08
residue_sequence=UCGAUC reported=1.05
residue_sequence=AUUUGC reported=1.82
residue_sequence=GUUGAU reported=4.02
residue_sequence=UGCCUC reported=1.11
residue_sequence=UAUGAA reported=0.826
residue_sequence=CAUGCA reported=0.757

----------
The entries below come with measured RBNS R-value values attached.
Test system: PyIESI-1 RRM domain (Plasmodium yoelii PY17X_0911200 aa 795-956, GST fusion)
ASSAY_NAME: RBNS R-value (6-mer enrichment in protein-bound RNA vs input library) (ratio); higher = stronger binding preference; the methods of the paper give 50 / 100 / 500 nM protein instead
MEASUREMENT_SETUP: protein concentration: 1000 nM
The full ranking holds about 4,100 sequences; the median of “RBNS R-value (6-mer enrichment in protein-bound RNA vs input library)” is about 0.96, and the highest 2% start at about 2.4. This is one part of a sample in which the highest values are shown more often than they occur.
PROPERTY_LABEL: RBNS R-value

residue_sequence=UGCUCA property_label="RBNS R-value" reported=1
residue_sequence=GGGGGA property_label="RBNS R-value" reported=1.01
residue_sequence=AGAUAU property_label="RBNS R-value" reported=1
